Entries and their TGI
Tested on: T-47D breast
protocol-text: NCI tumour cell line growth inhibition, 48 h

> print(dat)
                                   compound  reported.value
1  COc1cc2c(cc1OCCCCCOc1cc3c(cc1OC)C(=O)N1CCC[C@H]1C(=O)N3)N=C[C@@H]1CCCN1C2=O        > 100 µM
2  Cc1ccc2c(c1C)CC1(Cc3c(ccc4c3CCC4)C1=O)C2=O (stereo unspecified)        > 100 µM
3  Cc1cccc(N2C(=O)C3ON(C(C(N)=O)c4ccccc4)C(c4c5ccccc5c(Cl)c5ccccc45)C3C2=O)c1C (stereo unspecified)         32.1 µM
4  C=CC(=O)N[C@H]1C=C(C)c2c(-c3cnc4ccccc4c3)c3c(N)ncnc3n2C1        > 100 µM
5  CN1CCN(Cc2ccc(C(=O)Nc3cncc(C#Cc4cnc(N)c5ccccc45)c3)cc2C(F)(F)F)CC1         32.2 µM
6  CCOC(=O)c1sc2nc(SC)nc3c2c1N=CN3c1ccc(Br)cc1        > 100 µM

The measured TGI associated with `COc1cc(C(=O)NC2c3ccccc3-c3ccccc32)c(N)cc1OCc1ccccc1` reads > 100 µM

Record summary for `CC[C@@H]1CC[C@@H]2[C@H](CC[C@]3(C)[C@@H](O)CC[C@@H]23)[C@H]1C(=O)O` : reported TGI = > 100 µM

// TGI lookup, compound = `Brc1cccc(-c2cc(-c3ccc4c(c3)OCCO4)[nH]n2)c1` , result: 50.1 µM

Record C=C1CCC2C(/C=C(\C)CCC1O)OC(=O)C2C (stereo unspecified) . Reported TGI: > 100 µM

What the record says about `N#Cc1c(NC(=S)NC(=O)c2ccccc2)nc2c(c1-c1ccccc1)CCC2` : TGI is > 100 µM

response.value for C#Cc1cnc(=O)n(C2CC(O)C(CO)O2)c1 (stereo unspecified) (field: TGI) = > 100 µM
